Sourced from paper PMC9963587

PROTOCOL SUMMARY: in vitro
EXPERIMENTAL CONTEXT: human
QUANTITY NAME: CC50 (µM)
Write down the numeric answer in µM and omit the unit.

Specify reported CC50 for the compound shown: COc1ccc(-n2cnc3cc(NCc4cccc(O)c4)ccc32)cc1 [Compound 13h] 40.3

Specify reported CC50 for the compound shown: COc1ccc(-n2cnc3cc(NCc4cc(OC)c(OC)cc4OC)ccc32)cc1 [Compound 13d] 135

More entries:
Specify reported CC50 for the compound shown: CC(C)Oc1ccc(-n2cnc3cc(/C=C\c4ccc(C(C)(C)O)cc4)ccc32)cc1 [LHF−535, reference compound] 3.68

Specify reported CC50 for the compound shown: CCOc1ccc(/C=C\c2ccc3c(c2)ncn3-c2ccc(OC(C)C)cc2)cc1 17

Specify reported CC50 for the compound shown: CC(C)Oc1ccc(-n2cnc3cc(/C=C\c4ccc(OC(F)F)cc4)ccc32)cc1 17.9

Specify reported CC50 for the compound shown: COc1ccc(-n2cnc3cc(NCc4ccc(Cl)c(Cl)c4)ccc32)cc1 [Compound 13i] 81.7

Specify reported CC50 for the compound shown: COc1ccc(-n2cnc3cc(NCc4ccc(C(C)(C)C)cc4)ccc32)cc1 [Compound 13f] 102
